Source: patent EP4806435A1

Assay: Phase 1 clinical trial: plasma pharmacokinetics
Format: in vivo, human
Conditions: human, plasma, oral, 240 mg, Cycle 2 Day 1; 240 mg, QD; N=1; cut-off April 2023; read-out: AUC0-24 (mean)
Method: Summary statistics based on preliminary data were obtained for the pharmacokinetics of Compound 1 in patients receiving once-daily doses ranging from 20 mg to 240 mg (Table 5). The mean plasma concentration-time curves of Compound 1 in the once-daily dose groups ranging from 20 mg to 240 mg are shown in Figure 11. In this study, one cycle consists of 28 days, and Cycle 1 Day 1 refers to Day 1 of the first cycle. […] Accumulation was observed after repeated administration. […]

Compound | AUC(0-t), ng·h/mL
CC1(C)Oc2cc(Cl)ccc2[C@@H]2OCC3(CCN(CCn4ccnc4)CC3)C[C@H]21 [Compound 1] | 6670

* * *

Assay: Phase 1 clinical trial: plasma pharmacokinetics
Type: in vivo, human
Details: human, plasma, oral, 240 mg, Cycle 2 Day 1; 240 mg, QD; N=1; cut-off April 2023; read-out: AUC0-24 (geometric mean)

Compound | Unit descriptor | AUC(0-t)
CC1(C)Oc2cc(Cl)ccc2[C@@H]2OCC3(CCN(CCn4ccnc4)CC3)C[C@H]21 [Compound 1] | ng·h/mL | 6670

* * *

Experiment: Phase 1 clinical trial: plasma pharmacokinetics
Assay type: in vivo, human
Details: human, plasma, oral, 80 mg, Cycle 1 Day 1; 80 mg, QD; cut-off April 2023; read-out: Cmax (mean)
Experimental: Summary statistics based on preliminary data were obtained for the pharmacokinetics of Compound 1 in patients receiving once-daily doses ranging from 20 mg to 240 mg (Table 5). The mean plasma concentration-time curves of Compound 1 in the once-daily dose groups ranging from 20 mg to 240 mg are shown in Figure 11. In this study, one cycle consists of 28 days, and Cycle 1 Day 1 refers to Day 1 of the first cycle. […] Accumulation was observed after repeated administration. […]

Molecular string | Cmax (ng/mL)
CC1(C)Oc2cc(Cl)ccc2[C@@H]2OCC3(CCN(CCn4ccnc4)CC3)C[C@H]21 | 17

* * *

Assay: Phase 1 clinical trial: plasma pharmacokinetics
Assay type: in vivo, human
Conditions: human, plasma, oral, 120 mg, Cycle 1, Day 1; 120 mg QD; cut-off March 2024; read-out: Tmax [a] median value

Compound | Tmax (h)
CC1(C)Oc2cc(Cl)ccc2[C@@H]2OCC3(CCN(CCn4ccnc4)CC3)C[C@H]21 [Compound 1] | 4

* * *

Test: Phase 1 clinical trial: plasma pharmacokinetics
Assay type: in vivo, human
Conditions: human, plasma, oral, 120 mg, Cycle 2 Day 1; 120 mg, QD; cut-off April 2023; read-out: Tmax (median)
Protocol: Summary statistics based on preliminary data were obtained for the pharmacokinetics of Compound 1 in patients receiving once-daily doses ranging from 20 mg to 240 mg (Table 5). The mean plasma concentration-time curves of Compound 1 in the once-daily dose groups ranging from 20 mg to 240 mg are shown in Figure 11. In this study, one cycle consists of 28 days, and Cycle 1 Day 1 refers to Day 1 of the first cycle. […] Accumulation was observed after repeated administration. […]
Readout name: Tmax (h)

Molecular string | Value observed
CC1(C)Oc2cc(Cl)ccc2[C@@H]2OCC3(CCN(CCn4ccnc4)CC3)C[C@H]21 | 5

* * *

Experiment: Phase 1 clinical trial: plasma pharmacokinetics
Format: in vivo, human
Conditions: human, plasma, oral, 360 mg, Cycle 2, Day 1; 360 mg QD; cut-off March 2024; read-out: Tmax,ss [a] median value
Description: Summary statistics based on preliminary data were obtained for the pharmacokinetics of Compound 1 in patients receiving once-daily doses ranging from 20 mg to 240 mg (Table 5). The mean plasma concentration-time curves of Compound 1 in the once-daily dose groups ranging from 20 mg to 240 mg are shown in Figure 11. In this study, one cycle consists of 28 days, and Cycle 1 Day 1 refers to Day 1 of the first cycle. […] Accumulation was observed after repeated administration. […]

Molecule | Unit descriptor | Tmax
CC1(C)Oc2cc(Cl)ccc2[C@@H]2OCC3(CCN(CCn4ccnc4)CC3)C[C@H]21 [Compound 1] | h | 4
